Tested on: HSkMC
measurement.protocol: cytotoxicity call (relative viability < 0.9)
study.conditions: 10 µM
Screen size: about 39,000 compounds; about 1,500 (3.8%) were called active. The full list was thinned out, with actives kept by preference.
Thanks in advance; please answer with one of these: active, inactive

Observe how each entry below is paired with its result.
(Q) Which outcome was entered for the compound `Cc1noc(C)c1NC(=O)Nc1ccc2c(c1)C(=O)N([C@@H](C)CO)C[C@H](C)[C@@H](CN(C)C(=O)Nc1ccc3c(c1)OCO3)OCCCC[C@H](C)O2` in this test?
(A) inactive

(Q) Could you kindly confirm the outcome this assay logged for `CC(C)CCC[C@@H](C)[C@H]1CC[C@H]2[C@@H]3C[C@@H](O)[C@@]4(O)C[C@@H](O)CC[C@]4(C)[C@H]3CC[C@]12C` ?
(A) active

(Q) Lab log entry: `C[C@@H]1CN([C@H](C)CO)C(=O)c2cc(NC(=O)Nc3ccccc3)ccc2O[C@@H]1CN(C)Cc1ccc(C(F)(F)F)cc1` — outcome as called in the assay?
(A) active

(Q) Name the outcome recorded for `Cc1ccc(S(=O)(=O)N(C)C[C@@H]2Oc3ccc(NS(=O)(=O)c4cccs4)cc3CC(=O)N([C@@H](C)CO)C[C@H]2C)cc1` in the assay.
(A) inactive

(Q) Called result for `C[C@@H]1CN([C@H](C)CO)C(=O)c2cc(NC(=O)Nc3ccccc3)ccc2O[C@H]1CN(C)Cc1ccc(C(F)(F)F)cc1`
(A) inactive

***
(Q) For this compound, state the assay outcome: `CO[C@@H]1[C@@H](O)[C@H](O)[C@H](O)[C@H](O)[C@@H]1O`
(A) inactive

(Q) How did this test come out for `C[C@H]1CN([C@@H](C)CO)C(=O)c2cc(NC(=O)Nc3ccccc3)ccc2O[C@H]1CN(C)Cc1ccc(C(F)(F)F)cc1` ?
(A) inactive

(Q) For `CN(C)/N=N/c1nc[nH]c1C(N)=O` , which call appears in the assay record?
(A) inactive

(Q) Can you look up the reported call for `N#CC1(C#N)[C@H](c2ccccc2)[C@@H]1C(N)=O` for me?
(A) inactive

(Q) Fill in: this test's call for CC(C)CCCC(C)C1CCC2C3CCC4CC(O)CCC4(C)C3CCC12C (stereo not given) is ___
(A) inactive

(Q) How did this test come out for CC(C)CCCC(C)C1CCC2C3CC(=O)C4CC(O)CCC4(C)C3CCC12C (stereo not given) ?
(A) inactive

(Q) Given `COc1ccc(NC(=O)N(C)C[C@@H]2OCCCC[C@H](C)Oc3ccc(NC(=O)Nc4c(C)noc4C)cc3C(=O)N([C@@H](C)CO)C[C@H]2C)cc1` , state the outcome it received in this test.
(A) inactive

(Q) Record lookup: outcome of this test for `C[C@H](CO)N1C[C@H](C)[C@H](CN(C)Cc2ccc(C(F)(F)F)cc2)Oc2ccc(NC(=O)Nc3ccccc3)cc2C1=O` ?
(A) inactive

(Q) What call does the record list for `C[C@@H]1CN([C@@H](C)CO)C(=O)c2cc(NC(=O)Nc3ccccc3)ccc2O[C@H]1CN(C)Cc1ccc(C(F)(F)F)cc1` ?
(A) active

(Q) What call does the record list for `CCOC(=O)Cn1cnc2ccccc2c1=O` ?
(A) inactive

---

Tested on: HSkMC
measurement.protocol: cytotoxicity call (relative viability < 0.9)
study.conditions: 10 µM
Screen size: about 39,000 compounds; about 1,500 (3.8%) were called active. Shown is part of a subset that was picked to be rich in actives.
recorded.metric: cytotoxicity call

Known results for molecules:
Lab note: `Cc1noc(C)c1NC(=O)N(C)C[C@@H]1OCCCC[C@@H](C)Oc2ccc(NS(=O)(=O)c3ccc(Cl)cc3)cc2C(=O)N([C@H](C)CO)C[C@@H]1C` gave cytotoxicity call of inactive

The reported value for `Cc1noc(C)c1S(=O)(=O)Nc1ccc2c(c1)C(=O)N([C@@H](C)CO)C[C@H](C)[C@@H](CN(C)C(=O)Nc1ccccc1)OCCCC[C@@H](C)O2` in terms of cytotoxicity call is inactive

cytotoxicity call recorded for this molecule, `O=C(CCCCn1c(=O)[nH]c2ccccc2c1=O)N1CCN(c2ncccn2)CC1` , is inactive

Value of cytotoxicity call reported for the molecule `Cc1nc2cc(C)c(C)cc2s1` is inactive

More entries:
The molecule `CC(=O)N1CCc2nc(C(N)=O)sc2CC1` showed cytotoxicity call equal to inactive

---

Test system: HSkMC
measurement.protocol: cytotoxicity call (relative viability < 0.9)
study.conditions: 10 µM
Among all 39,000 compounds or so, about 1,500 (3.8%) were called active. Many of the other results were omitted from the sample, so actives are more common in it than they were.
recorded.metric: cytotoxicity call

Reported cytotoxicity call (HSkMC) for entry `C[C@H]1CN([C@@H](C)CO)C(=O)Cc2cc(NC(=O)Nc3ccccc3)ccc2O[C@H]1CN(C)Cc1ccc(Cl)c(Cl)c1` is active

# value of cytotoxicity call, HSkMC, item `C[C@@H]1CN([C@@H](C)CO)C(=O)Cc2cc(NC(=O)Nc3ccccc3)ccc2O[C@@H]1CN(C)Cc1ccc(Cl)c(Cl)c1` = active

With HSkMC as the test system, `C[C@@H]1CN([C@H](C)CO)C(=O)Cc2cc(NC(=O)Nc3ccccc3)ccc2O[C@@H]1CN(C)Cc1ccc(Cl)c(Cl)c1` showed cytotoxicity call of active

---

Test system: HSkMC
measurement.protocol: cytotoxicity call (relative viability < 0.9)
study.conditions: 10 µM
Out of some 39,000 compounds screened, about 1,500 (3.8%) were called active. For the sample, actives were picked, then their nearest neighbours and some compounds at random.
Field 'call' accepts active, inactive

(Q) Returns: the outcome recorded for `CC(C)(O)C#Cc1ccc([C@H]2[C@H](CO)N3CCCCN(S(C)(=O)=O)C[C@@H]23)cc1` in this assay.
(A) inactive

(Q) For `Cc1noc(C)c1S(=O)(=O)Nc1ccc2c(c1)C(=O)N([C@@H](C)CO)C[C@H](C)[C@H](CN(C)S(=O)(=O)c1cn(C)cn1)O2` , what call appears in the results of this test?
(A) inactive

(Q) Would you mind telling me which call this test gave `Cc1noc(C)c1NC(=O)Nc1ccc2c(c1)C(=O)N([C@H](C)CO)C[C@@H](C)[C@@H](CN(C)Cc1ccccc1)OCCCC[C@@H](C)O2` ?
(A) inactive

(Q) Please indicate how the test categorized `C[C@H](CO)N1C[C@H](C)[C@@H](CN(C)S(=O)(=O)c2ccc(-c3ccccc3)cc2)OCc2cn(nn2)CCCC1=O` .
(A) inactive

(Q) What classification did `C[C@H]1CCCCO[C@H](CN(C)Cc2ccc(Cl)c(Cl)c2)[C@@H](C)CN([C@@H](C)CO)C(=O)c2cc(NC(=O)Nc3ccccc3)ccc2O1` end up with in this test?
(A) inactive

(Q) Test call, this compound: `CCc1cc(=O)oc2c(C)c(O[C@@H]3O[C@H](CO)[C@@H](O)[C@H](O)[C@H]3O)ccc12`
(A) active

More entries:
(Q) Dear all, I need the recorded test outcome for `COc1ccc(C#Cc2ccc([C@@H]3[C@@H](CO)N4CCCCN(S(=O)(=O)c5cn(C)cn5)C[C@H]34)cc2)cc1` , thank you.
(A) active

(Q) Hi, do you know how `COc1ccc(C#Cc2ccc([C@@H]3[C@H]4CN(S(=O)(=O)c5cn(C)cn5)CCCCN4[C@H]3CO)cc2)cc1` came out in this test?
(A) inactive

(Q) Give the logged outcome of this assay for the following compound: `C=C1c2cccc(O)c2C(=O)C2=C(O)[C@]3(O)C(O)=C(C(N)=O)C(=O)[C@@H](N(C)C)[C@@H]3[C@@H](O)[C@H]12`
(A) inactive

---

Test system: HSkMC (human skeletal muscle cells)
measurement.protocol: cytotoxicity call (relative viability < 0.9)
study.conditions: 10 µM
Hit rate of the full screen: of about 39,000 compounds, about 1,500 (3.8%) were called active. What follows is part of a selection rich in actives, with near analogues and random picks from the rest.
Mark one answer only. Choices: YES (active), NO (inactive)

Before answering, review these 5 worked examples.
(Q) Hi, sorry to bother you, what did the test record for `NC(=O)c1cn([C@@H]2O[C@H](CO)[C@@H](O)[C@H]2O)c2ncnc(N)c2c1=O` ?
(A) YES

(Q) Could you check what this test reported for `Nc1ncn([C@@H]2O[C@H](CO)[C@@H](O)[C@H]2O)c(=O)n1` ?
(A) YES

(Q) Give the logged outcome of this assay for the following compound: `Nc1ncnc2c1ncn2[C@H]1O[C@@H](CO)[C@H](O)[C@@H]1O`
(A) NO

(Q) What was the test verdict on `Nc1ncn([C@@H]2C[C@H](O)[C@@H](CO)O2)c(=O)n1` ?
(A) NO

(Q) Identify the outcome logged in this assay for the compound shown: `COc1ccccc1C#Cc1cnc2c(c1)C(=O)N([C@H](C)CO)C[C@@H](C)[C@H](CN(C)C(=O)c1ccc3c(c1)OCO3)O2`
(A) NO

New cases:
(Q) # outcome recorded in this test, key = `COc1ccc(NC(=O)N2C[C@H](O)COC[C@@H]3O[C@H](CC(=O)NCc4ccccc4OC)CC[C@H]32)cc1`
(A) NO

(Q) Which outcome was entered for the compound `C[C@@H]1CN([C@H](C)CO)C(=O)c2cc(NC(=O)Nc3ccccc3)ccc2O[C@H]1CN(C)C(=O)Nc1cccc2ccccc12` in this test?
(A) NO

(Q) GET /call?item= `CN1CCN(C(=O)C[C@H]2CC[C@@H]3[C@H](COC[C@@H](O)CN3S(=O)(=O)c3cccc(F)c3)O2)CC1` returns the recorded outcome of this test.
(A) NO
